Test name: Stability assay in 25% TIDE 2X detergent without DTPA (residual Abz-AGLA-Nba protease activity)
Format: physicochemical
Condition notes: 180 min at 50°C; variant residual AGLA activity divided by wild-type residual activity
PI (relative stability), 25% TIDE 2X without DTPA for assorted molecules
Measure name: PI (relative stability), 25% TIDE 2X without DTPA

Molecule	Measurement
S065C: single-substitution thermolysin variant (SEQ ID NO:3 numbering) (protein, listed as Geobacillus caldoproteolyticus) ITGTSTVGVGRGVLGDQKNINTTYSTYYYLQDNTRGNGIFTYDAKYRTTLPGSLWADADNQFFACYDAPAVDAHYYAGVTYDYYKNVHNRLSYDGNNAAIRSSVHYSQGYNNAFWNGSQMVYGDGDGQTFIPLSGGIDVVAHELTHAVTDYTAGLIYQNESGAINEAISDIFGTLVEFYANKNPDWEIGEDVYTPGISGDSLRSMSDPAKYGDPDHYSKRYTGTQDNGGVHINSGIINKAAYLISQGGTHYGVSVVGIGRDKLGKIFYRALTQYLTPTSNFSQLRAAAVQSATDLYGSTSQEVASVKQAFDAVGVK	1.14
I156E: single-substitution thermolysin variant (SEQ ID NO:3 numbering) (protein, listed as Geobacillus caldoproteolyticus) ITGTSTVGVGRGVLGDQKNINTTYSTYYYLQDNTRGNGIFTYDAKYRTTLPGSLWADADNQFFASYDAPAVDAHYYAGVTYDYYKNVHNRLSYDGNNAAIRSSVHYSQGYNNAFWNGSQMVYGDGDGQTFIPLSGGIDVVAHELTHAVTDYTAGLEYQNESGAINEAISDIFGTLVEFYANKNPDWEIGEDVYTPGISGDSLRSMSDPAKYGDPDHYSKRYTGTQDNGGVHINSGIINKAAYLISQGGTHYGVSVVGIGRDKLGKIFYRALTQYLTPTSNFSQLRAAAVQSATDLYGSTSQEVASVKQAFDAVGVK	1.09

Values compiled from patent US9976134B2.
